Sourced from patent US20100279930A1

target-system: human Y4 receptor (human, UniProt P50391 1-375)
Sequence (P50391 whole entry): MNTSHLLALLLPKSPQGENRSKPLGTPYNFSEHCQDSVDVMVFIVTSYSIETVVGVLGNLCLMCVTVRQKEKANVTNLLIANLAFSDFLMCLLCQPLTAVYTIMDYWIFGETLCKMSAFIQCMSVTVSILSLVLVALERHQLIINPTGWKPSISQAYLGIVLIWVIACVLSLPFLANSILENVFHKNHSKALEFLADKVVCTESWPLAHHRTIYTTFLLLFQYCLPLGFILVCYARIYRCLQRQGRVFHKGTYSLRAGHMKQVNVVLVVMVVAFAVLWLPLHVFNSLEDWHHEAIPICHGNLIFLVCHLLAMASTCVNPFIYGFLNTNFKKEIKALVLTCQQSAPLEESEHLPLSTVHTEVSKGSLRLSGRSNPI
assay-summary: 125I-PP displacement
pIC50: −log10 of the molar value.
Below, each of the binders is paired with its reported pIC50 value.
experimental-readout: pIC50

>>> measured_number("APLEPVYPGDNATPEQMAQYAAALRRYINKLTRPRY [compound of SEQ ID NO:167 (code 7214)]")
9.97
>>> measured_number("APLEPKYPGDNATPEQMAQYAAALRRYINKLTRPRY [7231]")
10.05
>>> measured_number("GAPLEPVYPGDNATPEELVKYYSALRRYINMLTRPRY [7102]")
9.94
>>> measured_number("AAPLEPVYPGDDATPQQMAQYAAELRRYINMLTRPRY [6866]")
9.77
